pIC50 for assorted molecules
Test system: HL60 (Acute myeloid leukaemia)
Experiment: Antileukemic activity, cell viability (CCK-8 Cell Counting Kit)
Format: cell-based
Conditions: Homo sapiens, HL-60; 18 h incubation, compounds 0 - 100 µM; read-out: IC50 Cancer cells HL60 (Acute myeloid leukaemia)
pIC50: −log10 of the molar value.

molecule	pIC50
CSCCCN=C=S [Compound 4, (3-isothiocyanatopropyl)(methyl)sulfane, reference compound]	5.05
C[S+]([O-])CCCN=C=S (racemic) [rac-5, reference compound]	4.96
CCS(=O)(=O)[C@H]1O[C@H](COC(C)=O)[C@@H](OC(C)=O)[C@H](N=C=S)[C@H]1OC(C)=O	4.70
CC[S@@+]([O-])[C@H]1O[C@H](COC(C)=O)[C@@H](OC(C)=O)[C@H](N=C=S)[C@H]1OC(C)=O [(RS)-17α]	4.30
CCS[C@H]1O[C@H](COC(C)=O)[C@@H](OC(C)=O)[C@H](N=C=S)[C@H]1OC(C)=O	5.01

* * *

Test system: MeWo (human melanoma cells)
Test: Cell viability assay (resazurin), cytotoxic activity against solid tumours
Type: cell-based
Conditions: Homo sapiens, MeWo; 72 h treatment, resazurin assay, mean ± SEM; read-out: IC50 MeWo (Melanoma; BRAF WT)

molecule	study-system	IC50 [µM]
CC(=O)OC[C@H]1O[C@H](Sc2ccccc2)[C@H](OC(C)=O)[C@@H](N=C=S)[C@@H]1OC(C)=O [Compound 15α]	MeWo (human melanoma cells)	18.8
CCS[C@H]1O[C@H](COC(C)=O)[C@@H](OC(C)=O)[C@H](N=C=S)[C@H]1OC(C)=O [Compound 14α]	MeWo (human melanoma cells)	46.4
CC(=O)OC[C@H]1O[C@H]([S@+]([O-])c2ccccc2)[C@H](OC(C)=O)[C@@H](N=C=S)[C@@H]1OC(C)=O [(RS)-18α]	MeWo (human melanoma cells)	55.3
CC(=O)OCC1OC([S+](C)[O-])C(OC(C)=O)C(N=C=S)C1OC(C)=O (stereo not drawn) [(SS)-16β]	MeWo (human melanoma cells)	122

* * *

pIC50 for assorted molecules
Tested on: T24 (human bladder cancer cells)
Assay: Cell viability assay (resazurin), cytotoxic activity against solid tumours
Assay type: cell-based
Conditions: Homo sapiens, 72 h, read-out: IC50 T24 (Bladder cancer)
pIC50: −log10 of the molar value.
property: pIC50

molecule	reading
CCS(=O)(=O)[C@H]1O[C@H](COC(C)=O)[C@@H](OC(C)=O)[C@H](N=C=S)[C@H]1OC(C)=O	4.25
CC(=O)OC[C@H]1O[C@@H](S(=O)(=O)c2ccccc2)[C@H](OC(C)=O)[C@@H](N=C=S)[C@@H]1OC(C)=O	4.44
CC(=O)OC[C@H]1O[C@@H](S(C)(=O)=O)[C@H](OC(C)=O)[C@@H](N=C=S)[C@@H]1OC(C)=O	4.29
CCS(=O)(=O)[C@@H]1O[C@H](COC(C)=O)[C@@H](OC(C)=O)[C@H](N=C=S)[C@H]1OC(C)=O	4.41
CSCCCN=C=S [Compound 4, (3-isothiocyanatopropyl)(methyl)sulfane, reference compound]	4.84
CC(=O)OC[C@H]1O[C@H](S(=O)(=O)c2ccccc2)[C@H](OC(C)=O)[C@@H](N=C=S)[C@@H]1OC(C)=O	4.73
C[S+]([O-])CCCN=C=S (racemic) [rac-5, reference compound]	4.91
CS(=O)(=O)CCCN=C=S [Compound 6, reference compound]	4.97
